Study target: human PRMT6 (Homo sapiens)
Construct: Flag-PRMT6-His; made in house; host or cells: HEK 293F cells (BacMam baculovirus)
Experimental details: PRMT6 Biochemical Assay (3H-SAM Flashplate, peptide substrate)
Run conditions: Biochemical IC50 PRMT6, single experiment or average of multiple experiments
Attribute measured: log10 IC50 (log10 of the value in nM)
Friendly reminder: values = log10 of IC50, unit nM.

CN(CCN)Cc1c[nH]nc1-c1ccc(OC2CCOCC2)cc1 [Compound 178]: 0.86
COc1ccc(Cl)cc1-c1n[nH]cc1CN(C)CCN [Compound 157]: 2.70
Cc1ccc(C#N)cc1-c1n[nH]cc1CN(C)CCN [Compound 158]: 2.06
CNCCN(C)Cc1cnn(C2CC2)c1-c1ccc(F)cc1 [Compound 14]: 1.44

Now for another entry.
Qu. Notebook entry, human PRMT6 (Homo sapiens) assay: log10 IC50 of CNCCN(C)Cc1c[nH]nc1-c1ccc(Oc2ccccc2F)cc1 [Compound 237] = ?
Ans. 0.33

----------
// values below are IC50; system is human PRMT3 (Homo sapiens)
Sequence (O60678 with tags, fused parts or gaps): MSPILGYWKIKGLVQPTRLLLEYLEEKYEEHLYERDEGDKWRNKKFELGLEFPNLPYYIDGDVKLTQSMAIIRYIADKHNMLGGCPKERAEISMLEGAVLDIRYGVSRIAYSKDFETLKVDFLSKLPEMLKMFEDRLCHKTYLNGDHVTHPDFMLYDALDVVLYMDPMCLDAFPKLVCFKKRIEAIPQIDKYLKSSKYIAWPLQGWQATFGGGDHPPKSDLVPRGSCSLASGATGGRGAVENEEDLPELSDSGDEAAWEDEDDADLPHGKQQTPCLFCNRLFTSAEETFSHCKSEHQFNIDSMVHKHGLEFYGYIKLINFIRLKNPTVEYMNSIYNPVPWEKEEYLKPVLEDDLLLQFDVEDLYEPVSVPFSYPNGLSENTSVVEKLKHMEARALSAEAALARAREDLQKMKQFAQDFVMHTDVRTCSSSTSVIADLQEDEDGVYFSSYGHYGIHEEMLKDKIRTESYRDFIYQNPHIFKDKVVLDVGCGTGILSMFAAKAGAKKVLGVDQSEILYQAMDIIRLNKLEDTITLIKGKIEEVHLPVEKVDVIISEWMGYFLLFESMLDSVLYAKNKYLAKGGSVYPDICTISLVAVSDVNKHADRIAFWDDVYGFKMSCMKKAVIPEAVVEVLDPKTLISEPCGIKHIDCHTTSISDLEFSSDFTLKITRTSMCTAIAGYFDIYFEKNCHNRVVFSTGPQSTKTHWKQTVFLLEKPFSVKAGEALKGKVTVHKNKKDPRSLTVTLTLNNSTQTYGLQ
Use µM as the unit, but write only the number.

Known results for molecules:
CNCCN(C)Cc1c[nH]nc1-c1ccc(-c2ccccc2)cc1: 0.53
CNCCN(C)Cc1c[nH]nc1-c1cccc(NC(C)=O)c1: 2.55
COCCOc1ccc(-c2n[nH]cc2CN(C)CCN)cc1: 3.74

Qu. So what's the measured IC50 for this one? "CN(CCN)Cc1c[nH]nc1-c1ccc(Cl)cc1F"
Ans. 3.98

Qu. Also, "CN(CCN)Cc1c[nH]nc1-c1ccc(C(F)(F)F)c(F)c1" please.
Ans. 3.47

Qu. Also, "CN(CCN)Cc1cn(C)nc1-c1ccc(F)cc1" please.
Ans. 25.5

----------
Study target: human PRMT6 (Homo sapiens, UniProt Q96LA8)
Construct: Flag-PRMT6-His; made in house; host or cells: HEK 293F cells (BacMam baculovirus)
Sequence (Q96LA8 with tags, fused parts or gaps): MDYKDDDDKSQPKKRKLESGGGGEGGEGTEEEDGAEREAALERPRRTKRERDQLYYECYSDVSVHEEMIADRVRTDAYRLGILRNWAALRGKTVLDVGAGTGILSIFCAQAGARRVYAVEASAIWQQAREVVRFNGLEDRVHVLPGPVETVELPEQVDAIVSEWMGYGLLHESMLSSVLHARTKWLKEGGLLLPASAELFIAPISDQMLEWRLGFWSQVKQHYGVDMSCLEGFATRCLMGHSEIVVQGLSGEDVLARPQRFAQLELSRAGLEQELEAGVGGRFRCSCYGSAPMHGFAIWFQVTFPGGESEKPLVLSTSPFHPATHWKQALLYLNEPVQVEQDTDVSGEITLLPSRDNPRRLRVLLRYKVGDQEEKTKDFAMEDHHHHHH
Experimental details: PRMT6 Biochemical Assay (3H-SAM Flashplate, peptide substrate)
Run conditions: Biochemical IC50 PRMT6, single experiment or average of multiple experiments
pIC50: −log10 of the molar value.
# label = satisfied if pIC50 >= 7 else not satisfied

Worked cases, answers included:
CCNC(=O)c1cccc(-c2n[nH]cc2CN(C)CCNC)c1: satisfied
COc1ccc(-c2n[nH]cc2CN(C)CCN)c(F)c1: satisfied
CNCCN(C)Cc1c[nH]nc1-c1cccc(OC)c1OC: not satisfied
CNCCN(C)Cc1c[nH]nc1-c1ccc(OCC2CC2)cc1: satisfied
CNCCN(C)Cc1c[nH]nc1-c1ccc(N(C)C(C)C)cc1: not satisfied
CN(CCN)Cc1c(-c2ccc(C#N)cc2)cnn1C: not satisfied
CN(CCN)Cc1c[nH]nc1-c1ccc(C(C)(C)C)cc1: satisfied
COc1ccc(-c2n[nH]cc2CN(C)CCN)cc1: satisfied

Next compound, please.
Qu. Hi team, for "CCN(C)C(=O)c1cccc(-c2n[nH]cc2CN(C)CCN)c1" , is the recorded pIC50 at or above 7?
Ans. not satisfied

----------
// reported IC50 for each item listed
Study target: human PRMT6 (Homo sapiens, UniProt Q96LA8)
Construct: Flag-PRMT6-His; made in house; host or cells: HEK 293F cells (BacMam baculovirus)
Experimental details: PRMT6 Biochemical Assay (3H-SAM Flashplate, peptide substrate)
Run conditions: Biochemical IC50 PRMT6, single experiment or average of multiple experiments
Use nM as the unit, but write only the number.

Known results for compounds:
CN(CCN)Cc1c[nH]nc1-c1ccc(C(F)(F)F)cc1Cl: 28.9
CNCCN(C)Cc1cn(C)nc1-c1ccc(OC(C)C)c(Cl)c1: 21.4
CNCCN(C)Cc1n[nH]cc1-c1cc(CC(C)C)cc(CC(C)C)c1: 864

Qu. So what's the measured IC50 for this one? "Cc1[nH]nc(-c2ccc(F)cc2)c1CN(C)CCN"
Ans. 85

Qu. Also, "CNCCN(C)Cc1nn(C)cc1-c1ccc(OCCCOC)cc1" please.
Ans. 33

Qu. Also, "CN(CCN)Cc1c[nH]nc1-c1cccc(Cl)c1" please.
Ans. 8.99

----------
// reported pIC50 for each item listed
Study target: human PRMT6 (Homo sapiens, UniProt Q96LA8)
Construct: Flag-PRMT6-His; made in house; host or cells: HEK 293F cells (BacMam baculovirus)
Experimental details: PRMT6 Biochemical Assay (3H-SAM Flashplate, peptide substrate)
Run conditions: single experiment or average of multiple experiments; read-out: Biochemical IC50 PRMT6
pIC50 (log units): -log10 of the concentration in mol/L.

Known results for molecules:
CNCCN(C)Cc1c[nH]nc1-c1ccccc1-c1ccccc1: 5.49
CNCCN(C)Cc1c[nH]nc1-c1c(OC)cccc1OC: 5.72
CNCCN(C)Cc1c[nH]nc1-c1ccc(-c2ccccc2)cc1: 8.32

Now for another entry.
Qu. So what's the measured pIC50 for this one? "CNCCN(C)Cc1c[nH]nc1-c1cccc(C(C)=O)c1"
Ans. 7.40

----------
Study target: human PRMT6 (Homo sapiens, UniProt Q96LA8)
Construct: Flag-PRMT6-His; made in house; host or cells: HEK 293F cells (BacMam baculovirus)
Experimental details: PRMT6 Biochemical Assay (3H-SAM Flashplate, peptide substrate)
Run conditions: Biochemical IC50 PRMT6, single experiment or average of multiple experiments
Attribute measured: IC50 (nM)
Use nM as the unit, but write only the number.

CN(CCN)Cc1c[nH]nc1-c1ccc(OCCCO)cc1: 9.24

Qu. So what's the measured IC50 for this one? "C=CCn1ncc(CN(C)CCNC)c1-c1ccc(OC(C)C)cc1"
Ans. 30.8

Qu. Also, "CCOc1ccc(-c2n[nH]cc2CN(C)CCN)cc1" please.
Ans. 15.6

----------
Study target: human PRMT8 (Homo sapiens)
Sequence (Q9NR22 whole entry): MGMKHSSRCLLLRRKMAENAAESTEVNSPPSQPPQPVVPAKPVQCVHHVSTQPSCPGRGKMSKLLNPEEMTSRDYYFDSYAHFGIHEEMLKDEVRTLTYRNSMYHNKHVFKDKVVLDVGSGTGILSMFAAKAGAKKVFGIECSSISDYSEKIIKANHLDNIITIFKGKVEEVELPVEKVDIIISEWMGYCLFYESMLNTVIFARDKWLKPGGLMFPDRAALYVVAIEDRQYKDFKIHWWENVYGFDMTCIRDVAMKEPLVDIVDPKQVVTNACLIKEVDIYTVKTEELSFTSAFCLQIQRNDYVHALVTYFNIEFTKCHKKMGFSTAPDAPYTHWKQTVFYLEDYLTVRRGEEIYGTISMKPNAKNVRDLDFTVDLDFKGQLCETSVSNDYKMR
Experimental details: PRMT8 Biochemical Assay (3H-SAM Flashplate, peptide substrate)
Run conditions: single experiment or average of multiple experiments
Attribute measured: pIC50
pIC50 (log units): -log10 of the concentration in mol/L.

Cc1c(F)cccc1-c1n[nH]cc1CN(C)CCN [Compound 129]: 6.00
CNCCN(C)Cc1c[nH]nc1-c1ccc(OC(COC)C(C)C)cc1 (stereo not shown) [Compound 311]: 7.29
NCCN(Cc1c[nH]nc1-c1ccc(F)cc1)C1CC1 [Compound 78]: 5.83
CN(CCN)Cc1c[nH]nc1-c1ccccc1 [Compound 73]: 6.02
CC(C)Oc1cccc(-c2n[nH]cc2CN(C)CCN)c1 [Compound 187]: 5.77

Qu. So what's the measured pIC50 for this one? CNCCN(C)Cc1c[nH]nc1-c1ccc(OC)cc1OC [Compound 55]
Ans. 5.50

Qu. Also, CNCCN(C)Cc1c[nH]nc1-c1ccc(OCC2CC2)cc1 [Compound 288] please.
Ans. 7.85

Qu. Also, CCC(COC)Oc1ccc(-c2n[nH]cc2CN(C)CCNC)cc1 (stereo not shown) [Compound 310] please.
Ans. 7.77

Qu. Also, Cc1ccc(-c2n[nH]cc2CN(C)CCN)c(Cl)c1 [Compound 90] please.
Ans. 5.86

Qu. Also, CN(CCN)Cc1n[nH]cc1-c1ccc(F)cc1 [Compound 69] please.
Ans. 5.69

----------
// reported pIC50 for each item listed
Study target: UniProtKB Q9NR22
Experimental details: PRMT8 Biochemical Assay (3H-SAM Flashplate, peptide substrate)
Run conditions: single experiment or average of multiple experiments
pIC50 (log units): -log10 of the concentration in mol/L.

Known results for molecules:
CN(CCN)Cc1c[nH]nc1-c1ccc(OC2CC2)cc1: 7.32
CNCCN(C)Cc1c[nH]nc1-c1ccc(Oc2ccccc2)cc1: 7.24
COc1cc(Cl)cc(-c2n[nH]cc2CN(C)CCN)c1: 6.26
CNCCN(C)Cc1c[nH]nc1-c1ccc(OC2CCC2)c(F)c1: 7.74

Now for another entry.
Qu. Notebook entry, UniProtKB Q9NR22 assay: pIC50 of "COc1ccc(-c2n[nH]cc2CN(C)CCN)cc1F" = ?
Ans. 6.60

----------
Study target: human PRMT1 (Homo sapiens)
Construct: GST-tagged PRMT1; made in house; host or cells: High Five insect cells (baculovirus)
Sequence (Q99873 with tags, fused parts or gaps): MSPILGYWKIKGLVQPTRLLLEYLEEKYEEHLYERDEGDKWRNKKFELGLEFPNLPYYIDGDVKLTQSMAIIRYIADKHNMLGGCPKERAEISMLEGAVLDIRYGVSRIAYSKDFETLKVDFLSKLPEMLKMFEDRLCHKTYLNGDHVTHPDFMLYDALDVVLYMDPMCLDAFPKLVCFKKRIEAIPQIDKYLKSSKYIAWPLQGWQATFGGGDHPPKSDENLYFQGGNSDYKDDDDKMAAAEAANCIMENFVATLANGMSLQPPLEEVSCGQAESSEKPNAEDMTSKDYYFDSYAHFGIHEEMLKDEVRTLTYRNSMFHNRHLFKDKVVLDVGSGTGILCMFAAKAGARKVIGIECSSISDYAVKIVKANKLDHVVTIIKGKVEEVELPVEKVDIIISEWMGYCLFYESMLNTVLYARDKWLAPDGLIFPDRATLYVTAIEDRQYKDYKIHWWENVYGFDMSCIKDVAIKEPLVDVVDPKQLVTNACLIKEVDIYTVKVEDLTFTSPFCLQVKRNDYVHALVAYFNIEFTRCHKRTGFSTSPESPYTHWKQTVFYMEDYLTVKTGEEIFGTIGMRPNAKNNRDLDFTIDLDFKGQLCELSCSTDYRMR
Experimental details: PRMT1 Biochemical Assay (3H-SAM Flashplate, peptide substrate)
Run conditions: single experiment or average of multiple experiments
// reported IC50 for each item listed
Use nM as the unit, but write only the number.

CCNC(=O)c1ccc(-c2n[nH]cc2CN(C)CCN)cc1: 27.5
CN(CCN)Cc1c[nH]nc1-c1ccccc1: 126
CNCCN(C)Cc1c[nH]nc1-c1cc(F)ccc1F: 149
CN(CCN)Cc1c[nH]nc1-c1ccc(Cl)cc1Cl: 24
CCC(COC)Oc1ccc(-c2n[nH]cc2CN(C)CCNC)cc1 (centres unmarked): 14.5
CNCCN(C)Cc1c[nH]nc1-c1ccc(NCC(C)C)cc1: 28.8

Qu. So what's the measured IC50 for this one? "CNCCN(C)Cc1c[nH]nc1-c1ccc(OCC2CCC2)cc1"
Ans. 5.89

Qu. Also, "Cc1ccc(F)cc1-c1n[nH]cc1CN(C)CCN" please.
Ans. 71.9

Qu. Also, "CNCCN(C)Cc1c[nH]nc1-c1ccc(Oc2cccc(C(C)C)c2)cc1" please.
Ans. 5.63

Qu. Also, "CN(CCN)Cc1c(-c2ccc(C#N)cc2)ncn1C" please.
Ans. 1260

Qu. Also, "CC(C)Oc1ccc(-c2c(CN(C)CCN)cnn2C)cc1" please.
Ans. 10

Qu. Also, "CNCCN(C)Cc1c[nH]nc1-c1ccc(Oc2cccc(OC)c2)cc1" please.
Ans. 3.43

Qu. Also, "CCN(CC)C(=O)c1ccc(-c2n[nH]cc2CN(C)CCN)cc1" please.
Ans. 116

Qu. Also, "CNCCN(C)Cc1c[nH]nc1-c1ccc2ccccc2c1" please.
Ans. 5.73

Qu. Also, "CN(CCN)Cc1c[nH]nc1-c1ccc(Cl)cc1" please.
Ans. 7.84

Qu. Also, "CNCCN(C)Cc1cn(CC(N)=O)nc1-c1ccc(OC(C)C)cc1" please.
Ans. 275

Qu. Also, "CN(CCN)Cc1n[nH]cc1-c1ccc(C(F)(F)F)cc1" please.
Ans. 10.2

Qu. Also, "CNCCN(C)Cc1cnn(C)c1-c1ccc(Oc2ccccc2)cc1" please.
Ans. 4.16

Qu. Also, "CCOC(=O)c1cccc(-c2n[nH]cc2CN(C)CCN)c1" please.
Ans. 71.5

Qu. Also, "COc1ccc(Cl)cc1-c1n[nH]cc1CN(C)CCN" please.
Ans. 1540
